# PROCEDURE SUMMARY: chemical genetic growth profiling, strain panel (AID 1159580);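 further: tested at 20 µM; growth read once vehicle control cultures reached saturation at 30 °C; 1 = growth at the plate median or of vehicle wells; lower values mean less growth of the strain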
# CONDITION SET: S. cerevisiae deletion strains, growth OD, locus YOR083W, strain WHI5 (second series), active compounds read low
The campaign covered roughly 5,500 compounds. About 2,000 (36%) were called active. Another 18% or so got no clear call; they are omitted. This is one part of the list.
MEASURED METRIC: normalized growth
No unit in the answer, please; the number alone is enough.

1. NCC(O)c1ccc(O)cc1 (configuration not stated); 1.01

[ask] Output measured normalized growth for this item: `O=C(O)/C=C/c1cnc[nH]1`
[reply] 1.01

[ask] Output measured normalized growth for this item: `CN1CCC(c2c[nH]c3ccc(O)cc23)CC1`
[reply] 1.04

[ask] Output measured normalized growth for this item: `COc1cc(CNC(=O)CCCCCCC(C)C)ccc1O`
[reply] 0.981

[ask] Output measured normalized growth for this item: `CCN1CCc2nc(N)oc2CC1`
[reply] 0.999

[ask] Output measured normalized growth for this item: Nc1ncnc2c1ncn2[C@@H]1O[C@H](COP(=O)(O)OP(=O)(O)OP(=O)(O)OP(=O)(O)OC[C@@H]2O[C@H](n3cnc4c(N)ncnc43)C(O)[C@@H]2O)[C@H](O)C1O (some centres not stated)
[reply] 0.996

[ask] Output measured normalized growth for this item: `O=C(O)CCCC[C@@H]1CCSS1`
[reply] 0.937
